Where do these numbers come from? They come from ChEMBL document CHEMBL1139501.

Give pIC50 for every item shown.
Sequence of the target: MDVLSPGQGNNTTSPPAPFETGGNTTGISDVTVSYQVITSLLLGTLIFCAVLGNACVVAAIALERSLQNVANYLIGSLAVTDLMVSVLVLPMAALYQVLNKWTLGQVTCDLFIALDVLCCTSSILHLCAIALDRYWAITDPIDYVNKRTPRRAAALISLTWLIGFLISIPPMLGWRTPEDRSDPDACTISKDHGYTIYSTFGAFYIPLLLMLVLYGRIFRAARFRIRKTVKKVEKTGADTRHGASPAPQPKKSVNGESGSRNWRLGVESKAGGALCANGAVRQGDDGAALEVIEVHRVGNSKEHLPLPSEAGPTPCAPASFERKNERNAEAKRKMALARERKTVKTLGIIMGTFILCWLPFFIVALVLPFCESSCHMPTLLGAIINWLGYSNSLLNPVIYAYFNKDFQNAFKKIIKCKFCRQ
Numbers only, as −log10 of the molar value.

C[C@H](CN(C(=O)c1ccc([N+](=O)[O-])cc1)c1ccccn1)N1CCN(c2cccc3c2OCCO3)CC1
8.37

Please find the next molecule below.
Note to self: pIC50 recorded for C[C@H](CN(C(=O)c1ccc(C(F)(F)F)cc1)c1ccccn1)N1CCN(c2cccc3c2OCCO3)CC1 was 8.21

====

Biological target: 5-hydroxytryptamine receptor 1A (Homo sapiens)
result type: pIC50
Numbers only, as −log10 of the molar value.

C[C@H](CN(C(=O)c1ccc([N+](=O)[O-])cc1)c1ccccn1)N1CCN(c2cccc3c2OCCO3)CC1
7.63

Count: 2. Required value per item: pIC50.
1. C[C@H](CN(C(=O)c1ccc(C(F)(F)F)cc1)c1ccccn1)N1CCN(c2cccc3c2OCCO3)CC1
2. C[C@H](CN(C(=O)c1ccc(C#N)cc1)c1ccccn1)N1CCN(c2cccc3c2OCCO3)CC1

Ans:
7.49
7.38
